Each recorded value in this set is attributed to PubChem BioAssay AID1645863.

Target: Ubiquitin carboxyl-terminal hydrolase 10 (Homo sapiens) (UniProt Q14694)
Sequence (Q14694 whole entry, looked up): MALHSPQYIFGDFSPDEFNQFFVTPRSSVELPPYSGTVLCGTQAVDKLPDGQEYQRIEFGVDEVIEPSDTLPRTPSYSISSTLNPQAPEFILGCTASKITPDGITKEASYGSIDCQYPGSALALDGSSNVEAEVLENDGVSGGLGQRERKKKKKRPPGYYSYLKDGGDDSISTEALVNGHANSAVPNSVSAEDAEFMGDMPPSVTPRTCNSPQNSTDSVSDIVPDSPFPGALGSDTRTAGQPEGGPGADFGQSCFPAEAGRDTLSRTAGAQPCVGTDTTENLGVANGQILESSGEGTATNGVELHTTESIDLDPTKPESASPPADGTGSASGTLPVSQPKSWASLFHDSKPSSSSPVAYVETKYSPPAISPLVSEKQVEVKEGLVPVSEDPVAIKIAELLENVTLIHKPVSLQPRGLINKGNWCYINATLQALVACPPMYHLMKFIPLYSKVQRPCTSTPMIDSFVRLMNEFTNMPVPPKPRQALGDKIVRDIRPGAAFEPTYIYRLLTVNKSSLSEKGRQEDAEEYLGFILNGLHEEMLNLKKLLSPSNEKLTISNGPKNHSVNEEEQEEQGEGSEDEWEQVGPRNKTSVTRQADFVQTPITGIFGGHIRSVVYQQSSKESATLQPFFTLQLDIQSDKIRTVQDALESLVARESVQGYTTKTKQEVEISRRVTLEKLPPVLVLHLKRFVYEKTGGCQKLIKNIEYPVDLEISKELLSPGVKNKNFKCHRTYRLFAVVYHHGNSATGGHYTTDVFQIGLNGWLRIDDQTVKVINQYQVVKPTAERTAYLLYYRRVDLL
Assay: ubiquitin-specific protease 10 DUB inhibitors, concentration-effect, biochemical, verification of primary screen actives (AID 1645863);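 further: potency values describe inhibition of USP10 cleavage of a fluorogenic ubiquitin substrate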
Settings: USP10 deubiquitinase enzymatic assay
Activity calls are given as the source filed them. How the calls were made is not given here.
Outcome codes: 1 = active, -1 = inactive

* Cc1cc(Cl)ccc1NC(=O)c1cc(-c2ccncc2)n[nH]1 | -1
* COc1ccc([C@H]2Oc3cc(OC)cc(O)c3C(=O)[C@@H]2[C@@H]2C(=O)c3c(O)cc(O)cc3O[C@H]2c2ccc(OC)cc2)cc1 | 1
* Cc1cc(C(=O)NC2(O)C(=O)c3ccccc3C2=O)n(C)n1 | 1
* COCCCn1c(C(=O)NCc2ccccc2)cc2c(=O)n3ccccc3nc21 | -1
* COC(=O)c1ccc2c(=O)n(-c3ccc(C)c(F)c3)c(N3CCC(C(N)=O)CC3)nc2c1 | -1
* CC(C)CC1NC(=O)C2CCCN2C1=O (centres undefined) | -1
* CCOc1ccccc1-c1cc(NC(=O)c2cc3ccc4cccnc4c3[nH]2)on1 | -1
* COc1cccc2cc(-c3nnc(SCC(=O)c4ccc(F)cc4)n3C)oc12 | -1
* Cc1cccc(OCC2=NN3C(=N)/C(=C\c4cc(C)n(-c5cc(C)cc(C)c5)c4C)C(=O)N=C3S2)c1 | -1
* Cc1cc(C)c(NC(=O)Cc2sc(Nc3ccc(C)c(C)c3)nc2O)c(C)c1 | -1
* CC(=O)c1ccc(N2CCN(S(=O)(=O)c3cc4c(cc3C)NC(=O)CO4)CC2)cc1 | -1
* CCn1cc2c(n1)c(=O)n(Cc1ccccc1)c(=O)n2CC(=O)Nc1ccc(C(C)C)cc1 | 1
* CC1=C(C)C(N(c2ccccc2)c2ccccc2)N(CCC(C)C)C1=O (centres undefined) | -1
* FC(F)(F)c1ccc(Nc2nnnc3ccccc23)cc1 | 1
* COc1ccc(NC(=O)Cn2c(=O)n(CCCC(=O)NCCc3ccc(OC)c(OC)c3)c(=O)c3ccccc32)cc1Cl | -1
* Cc1cc(C)c(NC(=O)Cn2c(=O)n(CCC(=O)NCc3ccc4c(c3)OCO4)c(=O)c3sccc32)c(C)c1 | 1
* COc1ccc(COc2ccc3c(C)c(CC(=O)N4CC[C@@]5(O)CCCC[C@H]5C4)c(=O)oc3c2)cc1 | -1
* CCc1cccc(NC(=O)Cc2nnc3ccc(-c4nc(C)no4)cn23)c1 | -1
* O=C(CCn1c(=O)c2ccccc2n(CC(=O)OCc2ccccc2)c1=O)NCc1ccc2c(c1)OCO2 | 1
